Assay target: T1, TM Rad9A 1-133 (Homo sapiens, UniProt Q99638 1-133, K11A;K15A;R22A)
T1 sequence: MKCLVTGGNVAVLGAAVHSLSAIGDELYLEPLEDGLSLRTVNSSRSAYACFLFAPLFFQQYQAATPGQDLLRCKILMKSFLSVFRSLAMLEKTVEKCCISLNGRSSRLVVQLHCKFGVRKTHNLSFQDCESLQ
Test summary: EMSA; EMSA: 20 mM Tris-HCl pH 7.6, 80 mM NaCl, 1 mM DTT, 1 mM EDTA, 1.5% glycerol, 200 ng/ml poly dI/dC, 50 ug/ml BSA, 10 nM DNA; 6% native PAGE in 50 mM Tris-borate
Recorded conditions: protein: recombinant; tags: His; label: 5'-fluorescein (6-carboxyfluorescein) on HC40; blunt
Observed property: pKd
For clarity, pKd is expressed as the negative log10 of concentration in mol/L.

Please indicate pKd recorded for HC40/HG40 (dsDNA) DNA 1: CCGAGGAATTCGCCTTCTGCTCCATAGCCACTGGTTGTAG DNA 2: CTACAACCAGTGGCTATGGAGCAGAAGGCGAATTCCTCGG
5.11
